TARGET UNDER TEST: PIP5K1A (Homo sapiens)
Sequence (Q99755 whole entry): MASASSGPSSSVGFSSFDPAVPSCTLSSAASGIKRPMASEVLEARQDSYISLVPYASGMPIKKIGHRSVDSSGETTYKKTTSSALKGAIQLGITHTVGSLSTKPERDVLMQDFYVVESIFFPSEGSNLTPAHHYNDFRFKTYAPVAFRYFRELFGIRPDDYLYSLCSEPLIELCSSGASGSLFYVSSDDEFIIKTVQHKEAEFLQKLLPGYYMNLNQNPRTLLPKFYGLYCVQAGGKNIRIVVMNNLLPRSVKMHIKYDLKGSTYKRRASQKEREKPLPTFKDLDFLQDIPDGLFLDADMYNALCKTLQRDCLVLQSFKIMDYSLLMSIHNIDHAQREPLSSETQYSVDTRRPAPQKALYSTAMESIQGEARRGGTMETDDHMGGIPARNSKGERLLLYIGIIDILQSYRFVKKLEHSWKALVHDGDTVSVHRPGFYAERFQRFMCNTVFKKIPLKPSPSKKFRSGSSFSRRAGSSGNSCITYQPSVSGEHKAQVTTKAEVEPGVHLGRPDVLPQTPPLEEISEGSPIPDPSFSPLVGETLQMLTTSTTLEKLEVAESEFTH
EXPERIMENTAL READOUT: IC50 (µM)
Numbers only, in µM.

Measured IC50 of c1ccc(-c2cc(Nc3nc(-c4ccncc4)nc4ccccc34)n[nH]2)cc1 [UNI418] : 0.255

====

TARGET UNDER TEST: UniProtKB O14986
Sequence (O14986 whole entry): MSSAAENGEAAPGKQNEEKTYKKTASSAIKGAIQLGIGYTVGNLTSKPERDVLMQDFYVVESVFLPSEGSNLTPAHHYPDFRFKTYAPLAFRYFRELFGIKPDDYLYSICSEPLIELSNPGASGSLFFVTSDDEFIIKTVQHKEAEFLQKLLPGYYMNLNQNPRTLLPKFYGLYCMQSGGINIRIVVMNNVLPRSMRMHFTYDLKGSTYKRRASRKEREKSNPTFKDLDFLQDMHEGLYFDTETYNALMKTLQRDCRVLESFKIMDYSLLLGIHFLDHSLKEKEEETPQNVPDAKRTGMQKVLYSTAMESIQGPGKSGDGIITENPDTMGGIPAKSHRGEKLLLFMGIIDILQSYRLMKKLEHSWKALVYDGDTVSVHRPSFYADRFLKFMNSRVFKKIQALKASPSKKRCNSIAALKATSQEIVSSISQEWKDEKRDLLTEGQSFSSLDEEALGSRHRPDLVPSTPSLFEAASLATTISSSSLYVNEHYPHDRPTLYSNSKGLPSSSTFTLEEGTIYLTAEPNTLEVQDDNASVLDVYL
ASSAY: SelectScreen Kinase Profiling Service (single point and 10 point titration)
Type: biochemical
EXPERIMENTAL READOUT: pIC50
Give bare numbers, as −log10 of the molar value.

// returns pIC50 for c1ccc(-c2cc(Nc3nc(-c4ccncc4)nc4ccccc34)n[nH]2)cc1 with UniProtKB O14986; value = 7.22
